B1: TPR t1 (parent)
chain: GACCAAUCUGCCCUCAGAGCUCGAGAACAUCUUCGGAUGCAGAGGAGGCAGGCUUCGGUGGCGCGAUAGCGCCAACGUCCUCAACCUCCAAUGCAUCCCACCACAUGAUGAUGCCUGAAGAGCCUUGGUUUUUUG

# Variants of: B1
# PROCEDURE TEXT: polymerase ribozyme fitness, log enrichment relative to wild type (log ratio); higher = more active; in vitro selection for triplet polymerase activity
Please go through the items and note down their polymerase ribozyme fitness (log ratio).
One number for each entry.

MUTATION KEY: C11G G69C
MEASUREMENT KIND: polymerase ribozyme fitness (log ratio)
READOUT NUMBER: -1.7

MUTATION KEY: G51U C62A G110C
MEASUREMENT KIND: polymerase ribozyme fitness (log ratio)
READOUT NUMBER: -8.04

MUTATION KEY: C8U C13A A37U G47A C62U G122A
MEASUREMENT KIND: polymerase ribozyme fitness (log ratio)
READOUT NUMBER: -1.54

For each of the items listed, what is its polymerase ribozyme fitness (log ratio)?
1. C11A G61C
2. C104A C123U G128U U130A
3. C4G U38A A95U G127C
4. G51C C56U G110A
5. U7G A16C
6. C40A G44A U92G A95U C115U

OUTPUT:
[-2.39, -1.35, -0.148, -5.23, -1.37, -6.45]
